- testDetails: Aqueous (equilibrium) solubility assay
- Assay type: physicochemical
- conditions: aqueous buffer, thermodynamic from solid; pH 6.8 buffer, 48 hrs equilibrium; read-out: solubility at pH 6.8
Each entry below carries its recorded solubility at 48 h.
measure: solubility at 48 h (µg/mL)

{"compound": "CC[C@H](C)S(=O)(=O)C(C)(C)C(=O)Nc1nnn(C(C)(C)C)n1", "unitLabel": "µg/mL", "operator": "=", "reportedResult": 1150}
{"compound": "CC(C)(C)c1cc(NC(=O)C(C)(C)S(=O)(=O)c2ccc(F)cc2)on1", "unitLabel": "µg/mL", "operator": "=", "reportedResult": 1.25}
{"compound": "CC(C)(C)n1nnc(NC(=O)C(C)(C)S(=O)(=O)CC2CCOCC2)n1", "unitLabel": "µg/mL", "operator": "=", "reportedResult": 353}
{"compound": "Cn1nc(C(C)(C)C)cc1NC(=O)C(C)(C)S(=O)(=O)CC1CCOCC1", "unitLabel": "µg/mL", "operator": "=", "reportedResult": 452}
{"compound": "CC(C)(C)c1cc(NC(=O)C(C)(C)S(=O)(=O)C2CCOCC2)no1", "unitLabel": "µg/mL", "operator": "=", "reportedResult": 53}
{"compound": "CC(C)(C)c1csc(NC(=O)C(C)(C)S(=O)(=O)CC2CCOCC2)n1", "unitLabel": "µg/mL", "operator": "=", "reportedResult": 406}
{"compound": "CCC(C)S(=O)(=O)C(C)(C)C(=O)Nc1cc(C(C)(C)C)nn1C (stereo not drawn)", "unitLabel": "µg/mL", "operator": "=", "reportedResult": 1160}
{"compound": "Cn1nc(C(C)(C)C)cc1NC(=O)C(C)(C)S(=O)(=O)C1CCOCC1", "unitLabel": "µg/mL", "operator": "=", "reportedResult": 1230}
{"compound": "CC(C)(C)n1nnc(NC(=O)C(C)(C)S(=O)(=O)c2ccc(F)cc2)n1", "unitLabel": "µg/mL", "operator": "=", "reportedResult": 122}
{"compound": "CC(C)(C)n1nnc(NC(=O)C(C)(C)S(=O)(=O)C2CCOCC2)n1", "unitLabel": "µg/mL", "operator": ">", "reportedResult": 1750}
{"compound": "CC(C)(C)c1cc(NC(=O)C(C)(C)S(=O)(=O)CC2CCOCC2)no1", "unitLabel": "µg/mL", "operator": "=", "reportedResult": 44}
{"compound": "Cn1nc(C(C)(C)C)cc1NC(=O)C(C)(C)S(=O)(=O)c1ccc(F)cc1", "unitLabel": "µg/mL", "operator": "=", "reportedResult": 148}
{"compound": "CC(C)(C)c1csc(NC(=O)C(C)(C)S(=O)(=O)C2CCOCC2)n1", "unitLabel": "µg/mL", "operator": "=", "reportedResult": 16}
{"compound": "CC(C)(C)c1cc(NC(=O)C(C)(C)S(=O)(=O)c2ccc(F)cc2)no1", "unitLabel": "µg/mL", "operator": "=", "reportedResult": 4.7}
{"compound": "CC(C)(C)c1csc(NC(=O)C(C)(C)S(=O)(=O)c2ccc(F)cc2)n1", "unitLabel": "µg/mL", "operator": "=", "reportedResult": 1.62}

----------
- testedOn: human CB2R (Homo sapiens, UniProt P34972)
- Construct: host or cells: CHO cells
- Sequence (P34972 whole entry): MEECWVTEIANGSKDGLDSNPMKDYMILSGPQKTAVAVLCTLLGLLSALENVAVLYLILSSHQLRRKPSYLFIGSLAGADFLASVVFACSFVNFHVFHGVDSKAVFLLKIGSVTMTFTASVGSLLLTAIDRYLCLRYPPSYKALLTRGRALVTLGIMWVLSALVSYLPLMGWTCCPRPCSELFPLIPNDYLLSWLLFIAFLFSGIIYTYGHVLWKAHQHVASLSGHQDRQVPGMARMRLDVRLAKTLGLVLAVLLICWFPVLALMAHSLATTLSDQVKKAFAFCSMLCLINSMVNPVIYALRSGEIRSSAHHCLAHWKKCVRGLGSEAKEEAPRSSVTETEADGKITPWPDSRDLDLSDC
- testDetails: CB2R mediated modulation of cAMP synthesis
- Type: cell-based
- conditions: Table XI; CHO cells expressing human CB2R, forskolin-stimulated cAMP; read-out: CB2 CAMP EC50

{"compound": "Cn1nc(C(C)(C)C)cc1NC(=O)C(C)(C)S(=O)(=O)C1CCOCC1 [Example 69 WO08039645]", "unitLabel": "nM", "EC50": 216}
{"compound": "CCC(C)S(=O)(=O)C(C)(C)C(=O)Nc1cc(C(C)(C)C)nn1C (stereo not drawn) [Example 43 WO08039645]", "unitLabel": "nM", "EC50": 642}
{"compound": "Cn1nc(C(C)(C)C)cc1NC(=O)C(C)(C)S(=O)(=O)CC1CCOCC1 [Example 59 WO08039645]", "unitLabel": "nM", "EC50": 140}
